test system: H460 cells; test: Inhibition of KRas-mediated phosphorylation of ERK (Cisbio HTRF pERK), H460 cells; assay type: cell-based; settings: Homo sapiens, NCI-H460, single point at 100 nM, 3 hrs compound incubation
measured_endpoint: inhibition at 0.1 µM (%)
Field format: number, assumed %, no unit text.

The following compounds have reported results that may help.
CCc1c(F)ccc2cc(O)cc(N3CCc4c(nc(OC[C@@]56CCCN5C[C@H](F)C6)nc4N4CCCn5nc(P(C)(C)=O)cc5C4)C3)c12 :: 44
CCc1c(F)ccc2cc(O)cc(N3CCc4c(nc(OC[C@@]56CCCN5C[C@H](F)C6)nc4N4CCCCC(COCC(=O)NC)C4)C3)c12 (stereo partly drawn) :: 12
CCc1c(F)ccc2cc(O)cc(N3CCc4c(nc(OC[C@@]56CCCN5C[C@H](F)C6)nc4N4CCCn5nnc(Br)c5C4)C3)c12 :: 53

(Q) GET /values?readout=inhibition at 0.1 µM&item= CCc1c(F)ccc2cc(O)cc(N3CCc4c(nc(OC[C@@]56CCCN5C[C@H](F)C6)nc4N4CCCCn5nc(C(=O)N(C)C)c(Br)c5C4)C3)c12
(A) 84

(Q) What do you have for CCc1c(F)ccc2cc(O)cc(N3CCc4c(nc(OC[C@@]56CCCN5C[C@H](F)C6)nc4N4CCCn5nc(C(=O)N6CC7COCC6C7)cc5C4)C3)c12 (stereo partly drawn) ?
(A) 81

(Q) What do you have for CCc1c(F)ccc2cc(O)cc(N3CCc4c(nc(OC[C@@]56CCCN5C[C@H](F)C6)nc4N4CCCn5nc(C(=O)N6C[C@@H](C)N[C@@H](C)C6)cc5C4)C3)c12 ?
(A) 34

(Q) What do you have for CCc1c(F)ccc2cccc(N3CCc4c(nc(OC[C@@]56CCCN5C[C@H](F)C6)nc4N4CCCn5nc(C(=O)N(C)C)cc5C4)C3)c12 ?
(A) -1

* * *

target: KRas G12D (Homo sapiens, UniProt P01116, G12D); assay: biochemical; settings: Binding to KRas (IC50 nM) G12D, TR-FRET displacement, KRas G12D
Sequence (P01116 1-169 isoform P01116-2 G12D): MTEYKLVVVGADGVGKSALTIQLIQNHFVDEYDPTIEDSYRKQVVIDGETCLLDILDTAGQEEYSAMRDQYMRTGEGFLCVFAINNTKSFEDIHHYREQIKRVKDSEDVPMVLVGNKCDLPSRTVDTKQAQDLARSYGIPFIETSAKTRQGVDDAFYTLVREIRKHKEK
Measured IC50 values are reported for all entries that follow.
Field format: number, assumed nM, no unit text.

The following molecules have reported results that may help.
CCc1cccc2cccc(N3CCc4c(nc(OCC5(CN(C)C)CC5)nc4NCc4nnnn4C4CCC4)C3)c12 [Example 533] :: 7360
Oc1cc(N2CCc3c(nc(OC[C@@]45CCCN4C[C@H](F)C5)nc3N3CCCC4(CCSC4)C3)C2)c2c(Cl)c(F)ccc2c1 (stereo partly drawn) [Example 464] :: 9
CCc1c(F)ccc2cc(O)cc(N3CCc4c(nc(OC[C@@]56CCCN5C[C@H](F)C6)nc4N4CCCC5(CCCC5)C4)C3)c12 [Example 489] :: 761

Let's switch to this molecule now.
(Q) Report IC50 for Cc1cc2[nH]ncc2c(N2CCc3c(nc(OCC45CCCN4CCC5)nc3N3CC4C(=O)NC(=O)C4C3)C2)c1C (stereo not drawn) [Example 458] tested on KRas G12D (Homo sapiens, UniProt P01116, G12D).
(A) 48

* * *

biological target: KRas G12A (Homo sapiens, UniProt P01116, G12A); type: binding; details: TR-FRET displacement, read-out: Binding to KRas (IC50 nM) G12A
Sequence (P01116 1-169 isoform P01116-2 G12A): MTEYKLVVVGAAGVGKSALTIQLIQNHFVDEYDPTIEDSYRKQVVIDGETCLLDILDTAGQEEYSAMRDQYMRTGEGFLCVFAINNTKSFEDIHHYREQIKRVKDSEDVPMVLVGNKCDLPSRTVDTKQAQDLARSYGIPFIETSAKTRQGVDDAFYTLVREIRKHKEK
Measured IC50 values are reported for all entries that follow.
Your reply should be a number followed by the unit it is expressed in.

The following compounds have reported results that may help.
CCc1cccc2cccc(N3CCc4c(nc(OCC5(CN(C)C)CC5)nc4N4CC(C)CC(CO)C4)C3)c12 (stereo not shown) :: 1490 nM
CCc1cccc2cccc(N3CCc4c(nc(OCC5(CN(C)C)CC5)nc4NC4CN(C(=O)NC)C4)C3)c12 :: 6300 nM
Cc1cc2[nH]ncc2c(N2CCc3c(nc(OCC45CCCN4CCC5)nc3N3CCCC4(CC(=O)N4)C3)C2)c1C (stereo not shown) :: 35 nM

Let's switch to this compound now.
(Q) GET /values?readout=IC50&item= CCc1cccc2cccc(N3CCc4c(nc(OCC5(CN(C)C)CC5)nc4NCc4ncc(C#N)c(N)n4)C3)c12
(A) 2810 nM

* * *

target: KRas G12R (Homo sapiens, UniProt P01116, G12R); experiment: biochemical; details: Binding to KRas (IC50 nM) G12R, TR-FRET displacement, KRas G12R
Sequence (P01116 1-169 isoform P01116-2 G12R): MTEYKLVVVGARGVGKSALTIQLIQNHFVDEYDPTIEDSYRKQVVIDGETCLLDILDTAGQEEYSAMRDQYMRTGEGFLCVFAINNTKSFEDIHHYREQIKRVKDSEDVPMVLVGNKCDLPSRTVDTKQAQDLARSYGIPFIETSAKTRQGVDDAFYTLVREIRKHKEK
Measured IC50 values are reported for all entries that follow.

The following molecules have reported results that may help.
CCc1c(F)ccc2cc(O)cc(N3CCc4c(nc(OC[C@@]56CCCN5C[C@H](F)C6)nc4N4CCCC5(CCCC5)C4)C3)c12 [Example 489] :: 553 nM
CCc1c(F)ccc2cc(O)cc(N3CCc4c(nc(OC[C@]56CCCN5[C@H](CNS(=O)(=O)N(C)C)CC6)nc4N4CCCn5nc(C(=O)N(C)C)cc5C4)C3)c12 [Example 593] :: < 2 nM
CCc1c(F)ccc2cc(O)cc(N3CCc4c(nc(OC[C@@]56CCCN5C[C@H](F)C6)nc4N4CCCCn5nc(C(=O)N(C)C)c(Cl)c5C4)C3)c12 [Example 589] :: < 2 nM
CCc1c(F)ccc2cc(O)cc(N3CCc4c(nc(OC[C@@]56CCCN5C[C@H](F)C6)nc4N4CCCCn5nc(N)cc5C4)C3)c12 [Example 590] :: < 2 nM
CCc1c(F)ccc2cc(O)cc(N3CCc4c(nc(OC[C@@]56CCCN5C[C@H](F)C6)nc4N4C[C@@H]5C[C@H](C4)[C@H](O)C5)C3)c12 [Example 585B] :: < 2 nM

(Q) GET /values?readout=IC50&item= CCc1c(F)ccc2cc(O)cc(N3CCc4c(nc(OC[C@@]56CCCN5C[C@H](F)C6)nc4N4CCCCC(CC(=O)N(C)C)C4)C3)c12 (stereo partly drawn) [Example 345]
(A) < 2 nM

(Q) What do you have for CCc1c(F)ccc2cc(O)cc(N3CCc4c(nc(OC[C@@]56CCCN5C[C@H](F)C6)nc4N4CCCn5nc(C(=O)N6CC7CCC6CN7)cc5C4)C3)c12 (stereo partly drawn) [Example 264] ?
(A) < 2 nM

(Q) What do you have for CCc1c(C(=O)N(C)C)nn2c1CN(c1nc(OC[C@@]34CCCN3C[C@H](F)C4)nc3c1CCN(c1cc(O)cc4ccc(F)c(CC)c14)C3)CCC2 [Example 372] ?
(A) < 2 nM

* * *

Measured inhibition at 0.1 µM values are reported for all entries that follow.
system: H358 cells; experiment: Inhibition of KRas-mediated phosphorylation of ERK (Cisbio HTRF pERK), H358 cells; assay type: cell-based; conditions: Homo sapiens, NCI-H358, single point at 100 nM, 3 hrs compound incubation
Your reply should be a number followed by the unit it is expressed in.

The following compounds have reported results that may help.
CCc1c(F)ccc2cc(O)cc(N3CCc4c(nc(OC[C@@]56CCCN5C[C@H](F)C6)nc4N4CCCn5nc(C(=O)N6C7CCCC6CC7)cc5C4)C3)c12 :: 91%
CCc1c(F)ccc2cc(O)cc(N3CCc4c(nc(OC[C@@]56CCCN5C[C@H](F)C6)nc4N4CCCCC(CC(=O)N(C)C)C4)C3)c12 (stereo partly drawn) :: 13%
CCc1c(F)ccc2cc(O)cc(N3CCc4c(nc(OC[C@@]56CCCN5C[C@H](F)C6)nc4N4CCCCn5nc(C(=O)N(C)C)c(Br)c5C4)C3)c12 :: 101%
CCc1c(F)ccc2cc(O)cc(N3CCc4c(nc(OC[C@@]56CCCN5C[C@H](F)C6)nc4N4CCCn5nc(C(=O)N6CC7CC6C7)cc5C4)C3)c12 :: 100%
CCc1c(F)ccc2cc(O)cc(N3CCc4c(nc(OC[C@@]56CCCN5C[C@H](F)C6)nc4N4CCCCC(COCC(=O)NC)C4)C3)c12 (stereo partly drawn) :: 5%

Let's switch to this compound now.
(Q) GET /values?readout=inhibition at 0.1 µM&item= CCc1c(F)ccc2cc(O)cc(N3CCc4c(nc(OC[C@@]56CCCN5C[C@H](F)C6)nc4N4CCCn5nc(C(=O)N6CCC7CC6CN7)cc5C4)C3)c12 (stereo partly drawn)
(A) 8%

* * *

tested on: A549 cells; test: Inhibition of KRas-mediated phosphorylation of ERK (Cisbio HTRF pERK), A549 cells; type: cell-based; conditions: Homo sapiens, A549, 3 h, 3 hr compound incubation, Cisbio pERK HTRF
measured_endpoint: log10 IC50 (log10 of the value in nM)
In plain terms, each number is the log10 of measured IC50 in nM.

(Q) GET /values?readout=log10 IC50&item= CCc1c(F)ccc2cc(O)cc(N3CCc4c(nc(OC[C@@]56CCCN5C[C@H](F)C6)nc4N4CCCn5nc(C(=O)N(C)CCOCCOC)cc5C4)C3)c12
(A) 1.04

(Q) What do you have for CCc1c(F)ccc2cc(O)cc(N3CCc4c(nc(OC[C@@]56CCCN5C[C@H](F)C6)nc4N4CCCn5nc(C(=O)NC6CC6)cc5C4)C3)c12 ?
(A) 1.23

(Q) What do you have for CCc1c(F)ccc2cc(O)cc(N3CCc4c(nc(OCC56CCCN5C/C(=C\F)C6)nc4N4CCC[C@]5(C4)NC(=O)NC5=O)C3)c12 (some centres unmarked) ?
(A) 0.00

(Q) What do you have for CCc1c(F)ccc2cc(O)cc(N3CCc4c(nc(OC[C@@]56CCCN5C[C@H](F)C6)nc4N4CCCn5nc(C(=O)N(C)C(C)C)cc5C4)C3)c12 ?
(A) 0.85

(Q) What do you have for CCc1c(F)ccc2cc(O)cc(N3CCc4c(nc(OC[C@@]56CCCN5C[C@H](F)C6)nc4N4CCCn5nc(C(=O)N(C)C6CC6)cc5C4)C3)c12 ?
(A) 0.70

Where these numbers come from: patent US20250368649A1
